Data credit: the supplement of paper PMC4466140

Target: ScPex13
Experiment: SPOT peptide array binding signal intensity (averaged, normalized) (arbitrary units (background-subtracted, floor 0; scale differs between SH3 domains)); higher = stronger binding of the SH3 domain to the peptide
Note to self: values exactly at 500 are Y. So SPOT peptide array binding signal intensity at or above 500 is Y, below is N.

* AAHKTKPSIPPKKVE | N
* FSRRQSMDIPSKNRN | Y
* QQNRPLPQLPNRNNR | Y

Hi, just wondering whether `SGVRLPAPPPPPRRG` shows SPOT peptide array binding signal intensity of 500 or higher.
Y

Decide: is the reported value of SPOT peptide array binding signal intensity for `NRARYLPQNPDIIAG` equal to or greater than 500?
N

Has `RSRRSSFAYPQQVAI` a recorded SPOT peptide array binding signal intensity greater than or equal to 500?
N
